target entity: Cellular tumor antigen p53 (Homo sapiens) (UniProt P04637)
Sequence (P04637 whole entry, looked up): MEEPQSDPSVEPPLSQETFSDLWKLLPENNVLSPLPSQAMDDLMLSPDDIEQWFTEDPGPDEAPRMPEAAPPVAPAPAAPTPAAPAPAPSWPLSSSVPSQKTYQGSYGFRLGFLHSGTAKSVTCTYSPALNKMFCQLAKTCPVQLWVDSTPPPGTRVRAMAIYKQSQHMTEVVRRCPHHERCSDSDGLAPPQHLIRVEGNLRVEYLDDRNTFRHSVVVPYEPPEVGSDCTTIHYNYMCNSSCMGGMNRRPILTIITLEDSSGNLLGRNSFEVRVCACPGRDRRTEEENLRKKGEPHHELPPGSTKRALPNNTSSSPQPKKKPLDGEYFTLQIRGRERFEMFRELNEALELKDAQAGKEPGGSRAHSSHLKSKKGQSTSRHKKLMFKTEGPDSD
measurement protocol: Primary qHTS for small molecule compounds that upregulate eGFP-tagged delta133p53alpha (in N-terminal) cells. (AID 2060322);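 also: cells pre-induced with doxycycline then dosed without doxycycline; 0% = DMSO vehicle and 100% = reference activator; nearly all actives have a fitted effect of over 75% in size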
conditions used: NCI-H358 eGFP-delta133p53alpha fluorescence, 24 h; active compounds read high
Records with an inconclusive call do not appear. The source made the active and inactive calls. Calls follow the shape of the dose curve; as a rule, active = well fitted activation curve with a large enough effect; inconclusive = small, poorly fitted or top-dose-only effect; inactive = no such curve, though single readings can be large or run the other way.
readout label: activation

Nc1nc(N)nc(NC2CC2)n1: 5.02% (inactive)
CC(CC(C#N)(c1ccccc1)c1ccccc1)N(C)C (stereo unspecified): 24.3% (inactive)
C[C@]12CC[C@H]3[C@@H](CCC4=CC(=O)CC[C@@H]43)[C@@H]1CC[C@@H]2OC(=O)CCC1CCCCC1: -13% (inactive)
CNC(=O)N1N=C(c2ccc(N)cc2)c2cc3c(cc2CC1C)OCO3 (stereo unspecified): 34.7% (inactive)
C[C@]12Cc3cn[nH]c3C[C@@H]1CC[C@@H]1[C@@H]2CC[C@@]2(C)[C@H]1CC[C@]2(C)O: -21.8% (inactive)
CC(N)c1cccc(Cl)c1Cl (stereo unspecified): -35.4% (inactive)

Task: Look up Cellular tumor antigen p53 (Homo sapiens) (UniProt P04637) data: activation of COc1ccc2c(c1)CN(C)CC2c1ccc(Cl)c(Cl)c1 (stereo unspecified) , then report it.
Output: 10.8% (inactive)

Task: Provide measured activation on Cellular tumor antigen p53 (Homo sapiens) (UniProt P04637) for O=C(NCCN1CCC2(CC1)C(=O)NCN2c1cccc(F)c1)c1ccc(F)c(F)c1 please.
Output: 18.1% (inactive)

* * *

target entity: Cellular tumor antigen p53 (Homo sapiens) (UniProt P04637)
measurement protocol: Primary qHTS for small molecule compounds that upregulate eGFP-tagged delta133p53alpha (in N-terminal) cells. (AID 2060322);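 also: cells pre-induced with doxycycline then dosed without doxycycline; 0% = DMSO vehicle and 100% = reference activator; nearly all actives have a fitted effect of over 75% in size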
conditions used: NCI-H358 eGFP-delta133p53alpha fluorescence, 24 h; active compounds read high
Records with an inconclusive call do not appear. Calls of active or inactive are those of the source. The call rests on the fitted dose curve; in most records, active means well fitted activation curve with a large enough effect; inconclusive means small, poorly fitted or top-dose-only effect; inactive means no such curve, though single readings can be large or run the other way.
readout label: activation

Below, each entry is followed by its recorded activation result.
COc1cc(CC(C)N)cc(OC)c1OC (stereo not given): -10.7% (inactive)
FC(F)(F)c1cccc(C2=CCN(CCc3ccc4ccccc4c3)CC2)c1: -5.08% (inactive)
C=CCC1([C@H](C)CCC)C(=O)NC(=O)NC1=O: 7.34% (inactive)
O=C(O)c1ccnc2cc(C(OCCN3CCCCC3)c3ccccc3Cl)[nH]c12 (stereo not given): -17% (inactive)
CCc1ccc(C2CCNCC2)cc1: 20.9% (inactive)
CCCCCn1cc(C(=O)Cc2ccccc2OC)c2ccccc21: 3.34% (inactive)
O=C(NC(=O)c1c(F)cccc1F)Nc1cc(Cl)c(OC(F)(F)C(F)C(F)(F)F)cc1Cl (stereo not given): -13.4% (inactive)
CC/C=C/C=C/C1(C)OC(OC)=C(C(=O)C2C(C)C(=O)c3cc(OC)c(O)c(O)c3C2(C)O)C1=O (stereo not given): 0.893% (inactive)

Task: # return recorded activation for entry CCCN1CCc2cc(O)cc3c2[C@H]1Cc1ccc(O)c(O)c1-3
Output: 23.3% (inactive)

Task: Tell me activation reported for NC(=NCCC[C@H](N)C(=O)O)N[N+](=O)[O-]
Output: -32.4% (inactive)

Task: Please indicate activation recorded for CC(C)NC(C)C
Output: -1.69% (inactive)

Task: Return reported activation. Input molecule: Nc1ccc([As](=O)(O)O)cc1
Output: -5.02% (inactive)

Task: Provide measured activation value, entry: CC(=O)O[C@H]1CC[C@@]2(CI)C(=CC[C@@H]3[C@@H]2CC[C@]2(C)C(=O)CC[C@@H]32)C1
Output: 13.7% (inactive)

Task: Using the record for COCC(=O)N(c1c(C)cccc1C)C(C)C(=O)OC (stereo not given) , state its measured activation.
Output: 18.6% (inactive)

Task: Name the recorded activation of the molecule listed here: CCCN(CCC)CCc1ccc(OC)c(OCCc2ccccc2)c1
Output: -1% (inactive)

Task: Quick one: give measured activation for CCC1CC2CN3CCc4c([nH]c5ccccc45)C(C(=O)OC)(C2)C13 (stereo not given)
Output: 3.05% (inactive)

* * *

target entity: Retinal dehydrogenase 2 (Homo sapiens)
measurement protocol: qHTS for Inhibitors of the Aldehyde Dehydrogenase Family (ALDH1A2) Confirmation screens (AID 2061314); also: nearly all actives have a fitted effect of over 65% in size
conditions used: ALDH1A2 enzyme inhibition qHTS confirmation; series mostly up to 45.9 µM
Inconclusive results are not listed. Activity calls are given as the source filed them. Calls follow the shape of the dose curve; as a rule, active = well fitted inhibition curve with a large enough effect; inconclusive = small, poorly fitted or top-dose-only effect; inactive = no such curve, though single readings can be large or run the other way.
Hi! Could you answer with just one of these? active, inactive

CCOC(=O)c1ncn2c1[C@@H]1CCCN1C(=O)c1cc(OC)ccc1-2: inactive
C[C@@]1(C(=O)O)CC[C@]2(C)CC[C@]3(C)C4=CC(=O)c5cc(O)c(O)cc5[C@]4(C)CC[C@@]3(C)[C@@H]2C1: inactive
CO[C@@H]1[C@H](O)[C@@H](O[C@@H]2C[C@H]3CC[C@@H]4C(CC[C@]5(C)[C@@H](C6=CC(=O)OC6)CC[C@]45O)[C@@]3(C)[C@H](O)C2)O[C@H](C)[C@@H]1O (stereo partly specified): inactive
N#Cc1c(-c2cccc(-c3no[n+]([O-])c3C#N)c2)no[n+]1[O-]: active
CCC1NC(=O)C2C(Cl)C(Cl)CN2C(=O)C(CC)NC(=O)CC(c2ccccc2)NC(=O)C(CO)NC1=O (stereo unspecified): inactive

Task: What is the recorded call for this compound in the test? N#C/C(=C\c1ccc(O)c(O)c1)C(N)=S
Output: active

Task: Can you look up the reported call for N#Cc1c(-c2cc(F)cc(-c3no[n+]([O-])c3C#N)c2)no[n+]1[O-] for me?
Output: active

Task: So what was the verdict on C[C@@H]1Cc2c(Cl)cc(C(=O)N[C@@H](Cc3ccccc3)C(=O)O)c(O)c2C(=O)O1 in this test?
Output: inactive

Task: Give the logged outcome of this assay for the following compound: Cc1[nH]c2ccc(Cl)cc2c1CCN(C)C
Output: inactive

Task: # lookup: test call for NC1CCc2cc(O)c(O)cc2C1 (stereo unspecified)
Output: inactive

Task: What call does the record list for C[C@H]1O[C@@H](O[C@H]2CC[C@]3(CO)C4CC[C@]5(C)[C@@H](C6=CC(=O)OC6)CC[C@]5(O)[C@@H]4CC[C@H]3C2)[C@H](O)[C@H](O)[C@@H]1O[C@@H]1O[C@H](CO)[C@@H](O)[C@H](O)[C@H]1O (stereo partly specified) ?
Output: inactive

Task: Dear all, I need the recorded test outcome for Cc1c(N[C@@H](c2nnc(-c3ccc(C#N)cc3)o2)[C@H](C)O)ccc(C#N)c1Cl , thank you.
Output: inactive

Task: Call for entry CC1=C(C)C(=O)C(CC[C@](C)(O)CCC[C@H](C)CCC[C@H](C)CCCC(C)C)=C(C)C1=O :
Output: active

Task: Could you check what this test reported for O=S(=O)(c1ccccc1F)N1CCOc2c(N3CCNCC3)cccc21 ?
Output: inactive

Task: What did the test return for COc1ccc(-n2c(C)cc(-c3nnc4n3CCCCC4)c2C)cc1 ?
Output: active

Task: Which outcome did this test record for the compound COc1ccc2c(c1)c(CCN(C)C)cn2S(=O)(=O)c1ccccc1 ?
Output: inactive

Task: Entry CN1CC[C@@]2(C)c3cc(O)ccc3N(C)C12 (stereo partly specified) : call = ?
Output: active

* * *

target entity: Cellular tumor antigen p53 (Homo sapiens) (UniProt P04637)
measurement protocol: Primary qHTS for small molecule compounds that upregulate eGFP-tagged delta133p53alpha (in N-terminal) cells. (AID 2060322);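 also: cells pre-induced with doxycycline then dosed without doxycycline; 0% = DMSO vehicle and 100% = reference activator; nearly all actives have a fitted effect of over 75% in size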
conditions used: NCI-H358 eGFP-delta133p53alpha fluorescence, 24 h; active compounds read high
Records with an inconclusive call do not appear. Square brackets hold non-standard residues; d marks the D form. Peptide text beside a SMILES is read from it. Ala(indol-2-yl) = N[C@@H](Cc1cc2ccccc2[nH]1)C(=O)O; Aib = CC(C)(N)C(=O)O
readout label: activation (%)
// units = %; emit number, no label

Known activation results, listed for orientation:
CN1CCCC1CCOC(c1cc2nccc(C(=O)O)c2[nH]1)c1ccccc1Cl (stereo unspecified): 4.33
C=CCC1=C(C)C(OC(=O)C2C(C=C(C)C)C2(C)C)CC1=O (stereo unspecified): 18.6
CCOC(=O)c1ncn2c1CN(C)C(=O)c1c(I)cccc1-2: 7.67
Clc1ccc(OCC2=NCCN2)cc1Cl: -0.955
CC(Cc1ccccc1)NCc1ccccc1Cl (stereo unspecified): 16.4

Task: Provide activation, tested on Cellular tumor antigen p53 (Homo sapiens) (UniProt P04637), for CC(N)Cc1c[nH]c2ccc(OCc3cccs3)cc12 (stereo unspecified) .
Output: -31.9

Task: Fill: activation (Cellular tumor antigen p53 (Homo sapiens) (UniProt P04637)) for this molecule CC(C)(NC(=O)[C@@H](N)Cc1ccc(O)cc1)C(=O)N[C@@H](Cc1cc2ccccc2[nH]1)C(=O)N[C@@H](Cc1ccccc1)C(=O)O (H-Y[Aib][Ala(indol-2-yl)]F-OH)
Output: 7

Task: Tell me its activation on Cellular tumor antigen p53 (Homo sapiens) (UniProt P04637): CN1CCc2cccc(Cl)c2CC1
Output: -13.1

Task: Fill in: activation on Cellular tumor antigen p53 (Homo sapiens) (UniProt P04637), entry C[C@]12Cc3cn[nH]c3C[C@@H]1CC[C@@H]1[C@H]2CC[C@@]2(C)[C@H]1CC[C@]2(C)O
Output: -11.9

Task: Please indicate recorded activation of COc1cc(C[C@@H](C)N)c(OC)cc1Br measured with Cellular tumor antigen p53 (Homo sapiens) (UniProt P04637).
Output: -17.5

Task: # lookup: Cellular tumor antigen p53 (Homo sapiens) (UniProt P04637) activation, key = Nc1ccc([N+](=O)[O-])cc1
Output: 28.8
